These entries and their values trace back to patent US20250115597A1.

Listed next: entries and their corresponding GI50.
# targetOrTestSystem: Ba/F3-FL-TYK2-P760L cells (Homo sapiens, UniProt P29597, P760L, cells depend on it)
# Construct: BaF3-FL-T2P760L (nM)
# Sequence (P29597 whole entry P760L): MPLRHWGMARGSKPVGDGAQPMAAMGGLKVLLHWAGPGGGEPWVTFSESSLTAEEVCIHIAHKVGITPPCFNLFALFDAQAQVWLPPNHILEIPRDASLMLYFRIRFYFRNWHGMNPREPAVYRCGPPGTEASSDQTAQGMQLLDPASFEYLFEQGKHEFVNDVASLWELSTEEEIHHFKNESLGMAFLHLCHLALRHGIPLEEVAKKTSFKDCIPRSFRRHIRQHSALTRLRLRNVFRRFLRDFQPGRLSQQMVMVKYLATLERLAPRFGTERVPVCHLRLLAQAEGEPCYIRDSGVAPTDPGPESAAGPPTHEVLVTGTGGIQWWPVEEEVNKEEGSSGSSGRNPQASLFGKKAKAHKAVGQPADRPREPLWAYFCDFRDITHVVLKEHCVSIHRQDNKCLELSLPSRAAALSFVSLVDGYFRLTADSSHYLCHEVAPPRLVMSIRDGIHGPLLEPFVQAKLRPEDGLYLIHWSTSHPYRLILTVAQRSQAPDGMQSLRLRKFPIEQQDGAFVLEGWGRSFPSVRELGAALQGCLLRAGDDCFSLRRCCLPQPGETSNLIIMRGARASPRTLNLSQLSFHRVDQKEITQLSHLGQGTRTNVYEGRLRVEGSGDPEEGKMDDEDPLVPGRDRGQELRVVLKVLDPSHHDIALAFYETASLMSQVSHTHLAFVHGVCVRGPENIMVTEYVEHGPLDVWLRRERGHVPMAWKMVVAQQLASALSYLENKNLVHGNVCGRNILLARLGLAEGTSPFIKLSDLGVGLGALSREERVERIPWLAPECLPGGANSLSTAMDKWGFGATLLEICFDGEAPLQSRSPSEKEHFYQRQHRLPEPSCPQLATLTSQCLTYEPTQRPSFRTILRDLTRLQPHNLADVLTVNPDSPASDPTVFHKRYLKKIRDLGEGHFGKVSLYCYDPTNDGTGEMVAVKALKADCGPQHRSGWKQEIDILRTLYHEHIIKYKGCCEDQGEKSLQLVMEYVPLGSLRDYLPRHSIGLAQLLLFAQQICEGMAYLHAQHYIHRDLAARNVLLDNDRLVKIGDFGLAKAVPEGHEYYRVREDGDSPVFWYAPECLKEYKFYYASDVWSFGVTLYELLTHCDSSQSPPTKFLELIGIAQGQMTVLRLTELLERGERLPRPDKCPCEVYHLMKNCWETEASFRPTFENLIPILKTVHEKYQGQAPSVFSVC
# experiment: Anti-proliferative assay, Ba/F3-FL-TYK2-P760L cells (Cell-Titer Glo)
# Type: cell-based
# experimentalParameters: 72 h, read-out: BaF3-FL-T2P760L IC50
Response body: numeric value in nM, unit text excluded.

- [2H]C([2H])([2H])NC(=O)c1cnc(NC(=O)C2CC2)cc1Nc1csc2c(F)cn(C)c(=O)c12: 91
- CNC(=O)c1cnc(NC(=O)C2CC2)cc1Nc1csc2ccn(C)c(=O)c12: 89.3
- [2H]C([2H])([2H])NC(=O)c1cnc(NC(=O)C2CC2)cc1Nc1ncn2ncc(C#N)c2c1OC: 75.2
- [2H]C([2H])([2H])NC(=O)c1cnc(NC(=O)C2CC2)cc1Nc1ccc2cnn(CC(F)(F)F)c2c1OC: 69.3
- [2H]C([2H])([2H])NC(=O)c1cnc(NC(=O)C2CC2)cc1Nc1ncn2ncc(Cl)c2c1OC: 48.2

INPUT: Returns the measured GI50 for the input compound. Input: `CCc1nn(C)c2ccc(Nc3cc(NC(=O)C4CC4)ncc3C(=O)OC)c(OC)c12`
OUTPUT: 732

INPUT: Form field: reported GI50 of `[2H]C([2H])([2H])NC(=O)c1cnc2cc1Nc1cc(cc(-c3ncn(C)n3)c1OC)COCc1nc(ccc1C)N2`
OUTPUT: 30

INPUT: For `[2H]C([2H])([2H])NC(=O)c1cnc(Nc2cc(F)ccn2)cc1Nc1cn(C)c2c(Cl)cn(CC)c(=O)c12` , what is its reported GI50?
OUTPUT: 25.9

INPUT: GI50 lookup needed for `[2H]C([2H])([2H])NC(=O)c1cnc(NC(=O)C2CC2)cc1Nc1ccc2cnn(CC#N)c2c1OC` , thanks.
OUTPUT: 45.7
